Test system: IL10 secretion by TMD8 ABC-DLBCL cells
TEST_DESCRIPTION: Human IL10 Mesoscale assay (TMD-8)
Format: cell-based
MEASUREMENT_PARAMETERS: Homo sapiens, TMD8; TMD-8 cells, 24 h
Listing of recorded pIC50 by entry.
Value format note: pIC50 is -log10 of concentration (mol/L); just state the number.

Problem: Data request, read-out pIC50, for COCc1cnn(-c2ncc(NC(=O)c3cnn(-c4cccc5ncccc45)c3C(F)(F)F)cc2Cl)n1 [Cpd 173]
Result: 6.62

Problem: Data request, read-out pIC50, for O=C(Nc1cnc(-n2nccn2)c(Cl)c1)c1cnn(-c2nccc3ccccc23)c1C(F)F [Cpd 56]
Result: 6.56

----------
Test system: IL6 secretion by OCI-LY3 ABC-DLBCL cells
TEST_DESCRIPTION: Human IL6 Mesoscale assay (OCI-LY3)
Assay type: cell-based
MEASUREMENT_PARAMETERS: Homo sapiens, 24 h
RECORDED_ENDPOINT: IC50

Cn1ncc2ccnc(-n3ncc(C(=O)Nc4cnc(-n5nccn5)c(C#N)c4)c3C(F)(F)F)c21    0.145 µM
O=C(Nc1cnc(-n2ccnn2)c(C(F)(F)F)c1)c1cnn(-c2cccc3ncccc23)c1C(F)(F)F    0.851 µM
N#Cc1cc(NC(=O)c2cnn(-c3ncnc4occc34)c2C(F)(F)F)cnc1-n1nccn1    0.151 µM

Problem: Data request, read-out IC50, for O=C(Nc1cc(Cl)c(-n2nccn2)cc1F)c1cnn(-c2cccc3nnsc23)c1C(F)(F)F
Result: 0.501 µM

Problem: Data request, read-out IC50, for C[C@@H](O)c1nccc2c(-n3ncc(C(=O)Nc4cnc(-n5nccn5)c(Cl)c4)c3C(F)(F)F)cccc12 (single isomer, unassigned)
Result: 0.039 µM

Problem: Data request, read-out IC50, for Cn1cc(-n2ncc(C(=O)Nc3cnc(-n4nccn4)c(Cl)c3)c2C(F)(F)F)c2ccccc2c1=O
Result: 0.123 µM

Problem: Data request, read-out IC50, for N#Cc1cc(NC(=O)c2cnn(-c3ncnc4scnc34)c2C(F)(F)F)cnc1-n1nccn1
Result: 1.58 µM

Problem: Data request, read-out IC50, for COCc1cnnn1-c1ncc(NC(=O)c2cnn(-c3cccc4ncccc34)c2C(F)(F)F)cc1Cl
Result: > 15.1 µM

FYI, the data here is from patent US10954214B2.
